Target: T1, human ferroportin (SLC40A1) fused in frame with GFP, stably expressed in HEK293 cells (human, UniProt Q9NP59 1-571)
T1 sequence (looked up): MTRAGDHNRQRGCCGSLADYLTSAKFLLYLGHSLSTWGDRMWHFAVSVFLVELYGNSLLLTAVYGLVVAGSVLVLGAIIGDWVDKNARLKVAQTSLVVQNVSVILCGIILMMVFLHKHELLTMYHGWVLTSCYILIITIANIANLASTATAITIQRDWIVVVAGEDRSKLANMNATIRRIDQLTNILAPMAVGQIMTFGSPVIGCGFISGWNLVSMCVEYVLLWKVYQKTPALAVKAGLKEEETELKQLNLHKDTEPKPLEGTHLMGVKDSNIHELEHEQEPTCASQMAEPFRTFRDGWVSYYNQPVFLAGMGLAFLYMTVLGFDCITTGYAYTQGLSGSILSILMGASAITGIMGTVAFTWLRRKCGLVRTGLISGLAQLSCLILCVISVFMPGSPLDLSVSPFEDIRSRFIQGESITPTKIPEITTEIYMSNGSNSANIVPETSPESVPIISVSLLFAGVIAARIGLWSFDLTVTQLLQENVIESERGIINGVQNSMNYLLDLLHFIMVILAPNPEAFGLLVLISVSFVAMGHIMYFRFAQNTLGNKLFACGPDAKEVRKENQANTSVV
Assay: cell-based or functional assay
Starred links: 1 amine or outer side, 2 acyl side, 3 side chain; linkers in the order of their positions; H or OH if unused. Non-standard residues stand in square brackets, D forms with d. Groups on a side chain read outwards from the residue. Primed or numbered codes have the meaning given here. *: point of attachment. Ala(1H-tetrazol-5-yl) = N[C@@H](Cc1nnn[nH]1)C(=O)O; C18 diacid = O=C(O)CCCCCCCCCCCCCCCCC(=O)*; Dip = N[C@H](C(=O)O)C(c1ccccc1)c1ccccc1; γGlu = O=C(O)[C@H](CCC(=O)[*:2])N[*:1]; Palmitoyl = CCCCCCCCCCCCCCCC(=O)*; NMeF = CN[C@@H](Cc1ccccc1)C(=O)O; β3hF = N[C@H](CC(=O)O)Cc1ccccc1; hLeu = CC(C)CC[C@H](N)C(=O)O; Isovaleryl = CC(C)CC(=O)*; (Me)Leu = methyl-leucine; hIle′ = not defined here; AEEA = NCCOCCOCC(=O)O; Ahx = NCCCCCC(=O)O
MEASURED_ATTRIBUTE: FPN EC50 (nM)
Output spec: scalar in nM, unitless text.

// query If you can, please state the reported FPN EC50 value of Isovaleryl-LTH[Dip]PLIK([Ahx-Palmitoyl])[(Me)Leu]-NH2 [Isovaleric Acid-L-T-H-[Dpa]-P-L-I-[Lys(Ahx_Palm)]-[(Me)Leu]-NH2] .
// result 287

// query Name the reported FPN EC50 value associated with the binder Isovaleryl-[Ala(1H-tetrazol-5-yl)]TH[Dip]PIIK([Ahx-Palmitoyl])[β3hF]-NH2 (SMILES CCCCCCCCCCCCCCCC(=O)NCCCCCC(=O)NCCCC[C@H](NC(=O)[C@@H](NC(=O)[C@@H](NC(=O)[C@@H]1CCCN1C(=O)[C@@H](NC(=O)[C@H](Cc1c[nH]cn1)NC(=O)[C@@H](NC(=O)[C@H](Cc1nnn[nH]1)NC(=O)CC(C)C)[C@@H](C)O)C(c1ccccc1)c1ccccc1)[C@@H](C)CC)[C@@H](C)CC)C(=O)N[C@H](CC(N)=O)Cc1ccccc1) [Isovaleric Acid-[Tet1]-T-H-[Dpa]-P-I-I-[Lys(Ahx_Palm)]-[bhPhe]-NH2]
// result 86.8

// query GET /values?readout=FPN EC50&item= Isovaleryl-ETH[Dip]PEI[dK][β3hF]K([Ahx-Palmitoyl])-NH2 (SMILES CCCCCCCCCCCCCCCC(=O)NCCCCCC(=O)NCCCC[C@H](NC(=O)C[C@H](Cc1ccccc1)NC(=O)[C@@H](CCCCN)NC(=O)[C@@H](NC(=O)[C@H](CCC(=O)O)NC(=O)[C@@H]1CCCN1C(=O)[C@@H](NC(=O)[C@H](Cc1c[nH]cn1)NC(=O)[C@@H](NC(=O)[C@H](CCC(=O)O)NC(=O)CC(C)C)[C@@H](C)O)C(c1ccccc1)c1ccccc1)[C@@H](C)CC)C(N)=O) [Isovaleric Acid-E-T-H-[Dpa]-P-E-I-[(D)Lys]-[bhPhe]-[Lys(Ahx_Palm)]-NH2]
// result 682

// query Requested field: FPN EC50. Item: Isovaleryl-ETH[Dip]PAIK([AEEA-AEEA-γGlu-C18 diacid])[β3hF][dK]-NH2 [Isovaleric Acid-E-T-H-[Dpa]-P-A-I-[Lys(1PEG2_1PEG2_IsoGlu_C18_Diacid)]-[bhPhe]-[(D)Lys]-NH2]
// result 429

// query Consider the binder Isovaleryl-[Ala(1H-tetrazol-5-yl)]TH[Dip]PAIK([Ahx-Palmitoyl])-NH2 (SMILES CCCCCCCCCCCCCCCC(=O)NCCCCCC(=O)NCCCC[C@H](NC(=O)[C@@H](NC(=O)[C@H](C)NC(=O)[C@@H]1CCCN1C(=O)[C@@H](NC(=O)[C@H](Cc1c[nH]cn1)NC(=O)[C@@H](NC(=O)[C@H](Cc1nnn[nH]1)NC(=O)CC(C)C)[C@@H](C)O)C(c1ccccc1)c1ccccc1)[C@@H](C)CC)C(N)=O) [Isovaleric Acid-[Tet1]-T-H-[Dpa]-P-A-I-[Lys(Ahx_Palm)]-NH2] and give its measured FPN EC50.
// result 44.1

// query // FPN EC50 lookup, key: Isovaleryl-ETH[Dip]PSI[dK][β3hF]K([Ahx-Palmitoyl])-NH2 (SMILES CCCCCCCCCCCCCCCC(=O)NCCCCCC(=O)NCCCC[C@H](NC(=O)C[C@H](Cc1ccccc1)NC(=O)[C@@H](CCCCN)NC(=O)[C@@H](NC(=O)[C@H](CO)NC(=O)[C@@H]1CCCN1C(=O)[C@@H](NC(=O)[C@H](Cc1c[nH]cn1)NC(=O)[C@@H](NC(=O)[C@H](CCC(=O)O)NC(=O)CC(C)C)[C@@H](C)O)C(c1ccccc1)c1ccccc1)[C@@H](C)CC)C(N)=O) [Isovaleric Acid-E-T-H-[Dpa]-P-S-I-[(D)Lys]-[bhPhe]-[Lys(Ahx_Palm)]-NH2]
// result 46.3

// query Entry under review: Isovaleryl-ETH[Dip]P[hLeu]IK([Ahx-Palmitoyl])[β3hF]-NH2 (SMILES CCCCCCCCCCCCCCCC(=O)NCCCCCC(=O)NCCCC[C@H](NC(=O)[C@@H](NC(=O)[C@H](CCC(C)C)NC(=O)[C@@H]1CCCN1C(=O)[C@@H](NC(=O)[C@H](Cc1c[nH]cn1)NC(=O)[C@@H](NC(=O)[C@H](CCC(=O)O)NC(=O)CC(C)C)[C@@H](C)O)C(c1ccccc1)c1ccccc1)[C@@H](C)CC)C(=O)N[C@H](CC(N)=O)Cc1ccccc1) [Isovaleric Acid-E-T-H-[Dpa]-P-[hLeu]-I-[Lys(Ahx_Palm)]-[bhPhe]-NH2] . Reported FPN EC50?
// result 150

// query Give the measured FPN EC50 of Isovaleryl-ETH[Dip]P[hIle′]IK([Ahx-Palmitoyl])[β3hF]-NH2 [Isovaleric Acid-E-T-H-[Dpa]-P-[hIle]-I-[Lys(Ahx_Palm)]-[bhPhe]-NH2] .
// result 228

// query Sample Isovaleryl-ETH[Dip]PAIK([AEEA-AEEA-Ahx-C18 diacid])-NH2 [Isovaleric Acid-E-T-H-[Dpa]-P-A-I-[Lys(1Peg2_1Peg2_Ahx_C18_Diacid)]-NH2] — what was its FPN EC50?
// result 593

// query FPN EC50 for Isovaleryl-ETH[Dip]PAIK([AEEA-AEEA-Ahx-Palmitoyl])[β3hF]-NH2 (SMILES CCCCCCCCCCCCCCCC(=O)NCCCCCC(=O)NCCOCCOCC(=O)NCCOCCOCC(=O)NCCCC[C@H](NC(=O)[C@@H](NC(=O)[C@H](C)NC(=O)[C@@H]1CCCN1C(=O)[C@@H](NC(=O)[C@H](Cc1c[nH]cn1)NC(=O)[C@@H](NC(=O)[C@H](CCC(=O)O)NC(=O)CC(C)C)[C@@H](C)O)C(c1ccccc1)c1ccccc1)[C@@H](C)CC)C(=O)N[C@H](CC(N)=O)Cc1ccccc1) [Isovaleric Acid-E-T-H-[Dpa]-P-A-I-[Lys(1PEG2_1PEG2_Ahx_Palm)]-[bhPhe]-NH2] ?
// result 63.5

// query // FPN EC50 lookup, key: Isovaleryl-ETH[Dip]PLIK([Ahx-Palmitoyl])[NMeF]-NH2 [Isovaleric Acid-E-T-H-[Dpa]-P-L-I-[Lys(Ahx_Palm)]-[(Me)Phe]-NH2]
// result 27.2

Data credit: patent US20240066131A1
